System: NCI/ADR-RES
Experiment: Cytotoxicity against human NCI/ADR-RES cells after 48 hrs by trypan blue dye exclusion assay
Format: functional
parameter: GI50 (nM)
Write the value in nM as a bare number.

1. COc1ccc2c(c1)OC1=C(C(=O)OC1)C2c1cc(OC)c(OC)c(OC)c1 (stereo not given) :: 334

Input line: Fill blank: measured GI50 of the molecule COc1cc([C@@H]2c3cc4c(cc3[C@H](O)[C@H]3COC(=O)[C@H]23)OCO4)cc(OC)c1OC is ____.
Output line: 10

Input line: Thanks! And COc1ccc2c(c1)C(c1cc(OC)c3c(c1)OCO3)C1=C(COC1=O)N2 (stereo not given) ?
Output line: 289

Input line: Lookup COc1ccc2c(c1)OC1=C(C(=O)OC1)C2c1cc(OC)c2c(c1)OCCO2 (stereo not given)
Output line: 23.5

Data provenance is ChEMBL document CHEMBL2010711.
